Reference for the values: patent US20230321188A1

Target: T1, GAPR-1 (UniProt Q9H4G4 2-154, limits assumed)
T1 construct: Purified protein used in MST; also called purified Gapr-1
T1 sequence (looked up): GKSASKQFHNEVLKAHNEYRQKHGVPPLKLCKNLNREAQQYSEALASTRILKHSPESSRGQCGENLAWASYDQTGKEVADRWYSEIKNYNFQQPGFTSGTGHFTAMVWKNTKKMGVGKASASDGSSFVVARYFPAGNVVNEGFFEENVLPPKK
Assay: MicroScale Thermophoresis (MST), peptide titrated on purified Gapr-1; fraction bound against peptide conc. (M) [3A]
RESULT TYPE: pKd
Scale for pKd: -log10 of concentration given in mol/L; no unit attached.

Qu. Tell me the measured pKd of PYGNHSY (also called peptide P3T) [P3T] , please.
Ans. 6.68
